Where do these numbers come from? They come from ChEMBL document CHEMBL5137084.

# test.method.notes: Stability in carboxylesterase 1 knockout C57BL/6 mouse assessed as intact compound level at 10 mg/kg, po administered as single dose measured upto 8 hrs by LC-MS/MS analysis
# Format: ADME, organism-based
# measurement.setup: in vivo, read-out: Stability
measurement.label: concentration at 8 h (µM)
Return type: number; implicit unit µM.

**Q:** // Input: COc1cc(-c2nc(-c3ccccc3)c(-c3cccs3)[nH]2)cc(OC)c1OC(=O)N(C)C . Output its concentration at 8 h only.
**A:** 4.3

====

# test.method.notes: Tmax in carboxylesterase 1 knockout C57BL/6 mouse plasma at 15.12 mg/kg, po administered as single dose measured upto 8 hrs by LC-MS/MS analysis
# Assay type: ADME, organism-based
measurement.label: Tmax (h)
Return type: number; implicit unit h.

**Q:** // Input: COc1cc(-c2nc(-c3ccccc3)c(-c3cccs3)[nH]2)cc(OC)c1OC(=O)N1CCC(N2CCCCC2)CC1 . Output its Tmax only.
**A:** 1
